# experimental target: human Pim-1 (Homo sapiens (Human))
# assay procedure: biochemical
# Type: biochemical
# details: hPim1 Ki (nM), Ki converted from IC50; purified human Pim-1, Pim2tide substrate, ADP-Glo
This section presents compounds with their documented Ki values.

compound	experimental target	Ki (nM)
O=C1NCCN(CCC2CCC(C3(O)CC3)CC2)c2c1oc1ccc(C(F)(F)F)cc21 (stereo not shown) [Example 99]	human Pim-1 (Homo sapiens (Human))	0.0764
[2H]C1(O)CCC(CCN2CCNC(=O)c3oc4ccc(C(F)(F)F)cc4c32)CC1 (stereo not shown) [Example 92]	human Pim-1 (Homo sapiens (Human))	0.707
O=C1NC2(CC2)CN(CCC2CCC(O)(CO)CC2)c2c1oc1ccc(C(F)(F)F)cc21 (stereo not shown) [Example 116]	human Pim-1 (Homo sapiens (Human))	0.0092
CC1(O)CCOC(C(F)(F)CN2CCNC(=O)c3oc4ccc(C(F)(F)F)cc4c32)C1 (racemic) [Example 12]	human Pim-1 (Homo sapiens (Human))	0.0388

----------
# experimental target: human Pim-1 (Homo sapiens (Human), UniProt P11309)
# Sequence (P11309 whole entry): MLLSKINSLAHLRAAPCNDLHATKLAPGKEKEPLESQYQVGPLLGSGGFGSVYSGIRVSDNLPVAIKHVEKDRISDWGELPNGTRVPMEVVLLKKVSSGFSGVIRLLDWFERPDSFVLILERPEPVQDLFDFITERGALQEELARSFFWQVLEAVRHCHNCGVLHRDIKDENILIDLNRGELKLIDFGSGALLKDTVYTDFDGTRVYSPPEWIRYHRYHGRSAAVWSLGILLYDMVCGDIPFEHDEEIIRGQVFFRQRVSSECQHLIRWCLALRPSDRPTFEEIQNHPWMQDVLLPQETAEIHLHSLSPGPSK
# assay procedure: biochemical
# Type: biochemical
# details: Ki converted from IC50; purified human Pim-1, Pim2tide substrate, ADP-Glo; read-out: hPim1 Ki
Could you please mark t for values of Ki below 0.2 nM and f for values at or above it?

compound	group
O=C1NCCN(CC(F)(F)C2CC3(CCC2(F)F)OCCO3)c2c1oc1ccc(C(F)(F)F)cc21 (racemic) [Example 55]	t
O=C1NCCN(CCC2CC(O)CCO2)c2c1oc1ccc(C(F)(F)F)cc21 (stereo not shown) [Example 1]	f
O=C1NCCN(CC[C@H]2CC[C@](O)(CCO)CC2)c2c1oc1ccc(C(F)(F)F)cc21 [Example 108]	f
CS(=O)(=O)CC1COCC(CCN2CCNC(=O)c3oc4ccc(C(F)(F)F)cc4c32)O1 (racemic) [Example 137]	f
O=C1NCCN(CC[C@H]2CC[C@@](O)(C(F)(F)F)CC2)c2c1oc1ccc(C(F)(F)F)cc21 [Example 84]	f
O=C1NCCN(CC(F)(F)C2COCCO2)c2c1oc1ccc(C(F)(F)F)cc21 (single isomer, unassigned) [Example 70]	t
O=C1NC2(CC2)CN(CC[C@@H]2CO[C@H](CO)CO2)c2c1oc1ccc(C(F)(F)F)cc21 [Example 153]	f

----------
# experimental target: human Pim-1 (Homo sapiens (Human), UniProt P11309)
# assay procedure: biochemical
# Assay type: biochemical
# details: Ki converted from IC50; purified human Pim-1, Pim2tide substrate, ADP-Glo; read-out: hPim1 Ki
measure: Ki (nM)

molecule	units of measure	val
COC(C1CC(O)(CO)C1)C1(CN2CCNC(=O)c3oc4ccc(C(F)(F)F)cc4c32)CC1 (racemic) [Example 22]	nM	0.848
C[C@@H]1CO[C@@H](CCN2CCNC(=O)c3oc4ccc(C(F)(F)F)cc4c32)CO1	nM	1.04
CC1(C)OC[C@]2(CC[C@H](CCN3CCNC(=O)c4oc5ccc(C(F)(F)F)cc5c43)CC2)O1	nM	1.6
CC1(CO)CCC(CCN2CCNC(=O)c3oc4ccc(C(F)(F)F)cc4c32)CC1 (stereo not shown)	nM	0.129
COC1(CO)CCOC(C(F)(F)CN2CCNC(=O)c3oc4ccc(C(F)(F)F)cc4c32)C1 (stereo not shown)	nM	0.0206
CC1(C(=O)O)CCC(CCN2CCNC(=O)c3oc4ccc(C(F)(F)F)cc4c32)CC1 (stereo not shown)	nM	5.15
O=C1NCCN(CCC2CCC(O)(C(F)(F)CO)CC2)c2c1oc1ccc(C(F)(F)F)cc21 (single isomer, unassigned) [Example 118]	nM	0.127
